- Target Entity: Menin/MLL (Homo sapiens, UniProt O00255, T541A)
- Construct: Menin (a.a 1-610-6xhis tag)
- Sequence (O00255 with tags, fused parts or gaps T541A): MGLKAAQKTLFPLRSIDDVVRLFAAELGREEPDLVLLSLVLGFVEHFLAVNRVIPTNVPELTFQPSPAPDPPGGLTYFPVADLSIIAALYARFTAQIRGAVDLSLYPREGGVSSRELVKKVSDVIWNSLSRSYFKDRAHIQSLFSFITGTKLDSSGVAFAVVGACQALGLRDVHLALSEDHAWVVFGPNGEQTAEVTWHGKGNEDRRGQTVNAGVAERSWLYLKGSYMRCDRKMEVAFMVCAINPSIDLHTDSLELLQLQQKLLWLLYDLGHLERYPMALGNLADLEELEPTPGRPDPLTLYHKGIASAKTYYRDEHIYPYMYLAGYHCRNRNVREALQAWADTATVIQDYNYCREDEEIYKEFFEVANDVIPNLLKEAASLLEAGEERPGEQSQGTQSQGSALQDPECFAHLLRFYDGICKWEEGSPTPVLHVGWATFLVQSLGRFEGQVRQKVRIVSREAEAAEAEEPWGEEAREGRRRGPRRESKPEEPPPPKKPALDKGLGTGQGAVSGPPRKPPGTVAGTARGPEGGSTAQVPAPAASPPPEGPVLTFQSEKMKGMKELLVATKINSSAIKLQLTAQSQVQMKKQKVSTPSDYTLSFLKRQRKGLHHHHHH
- Protocol: Menin/MLL homogenous time-resolved fluorescence (HTRF) assay
- Type: binding
- Test Settings: 30 min incubation of test compound with terbium chelate-labeled menin; FITC-MBM1 peptide
Documented IC50 across a set of molecules
Outcome Measure: IC50 (nM)

* CCN(C)C[C@H](O)C[C@@H](N1CC2(CCN(c3ncnnc3Oc3ccc(F)cc3C(=O)N(CC)C(C)C)C2)C1)C(C)(C)C (single isomer, unassigned) [Compound 24] | 35.5
* CCN(C(=O)c1cc(F)ccc1Oc1nncnc1N1CCC2(C1)CN(C(CCCN(C)CCOC)C(C)(C)C)C2)C(C)C (single isomer, unassigned) [Compound 13a] | 1.97
* CCN(C(=O)c1cc(F)ccc1Oc1nncnc1N1CCC2(C1)CN(C(CCCN(C)CCOCCN)C(C)C)C2)C(C)C (single isomer, unassigned) [Compound 5] | 0.11
* CCN(CC(C)O)C(=O)c1cc(F)ccc1Oc1nncnc1N1CCC2(C1)CN(C(CCCN(C)CCOC)C(C)C)C2 (single isomer, unassigned) [Compound 17] | 79.3
* CCN(C(=O)c1cc(F)cc(Br)c1Oc1nncnc1N1CCC2(C1)CN([C@H](CCCN(C)CCOC)C(C)C)C2)C(C)C [Compound 21] | 13.7
* CCN(C(=O)c1cc(F)ccc1Oc1nncnc1N1CCC2(C1)CN(C(CCCN(C)CCOC(F)(F)F)C(C)C)C2)C(C)C (single isomer, unassigned) [Compound 2] | 0.376

###

- Target Entity: Menin/MLL (Homo sapiens, UniProt O00255, T541A)
- Construct: Menin (a.a 1-610-6xhis tag)
- Protocol: Menin/MLL homogenous time-resolved fluorescence (HTRF) assay
- Test Settings: 30 min incubation of test compound with terbium chelate-labeled menin; FITC-MBM1 peptide
API: label(entry) gives Criterion met if the entry's IC50 is strictly smaller than 3 nM; on equality or larger values it gives Criterion not met.

• CCN(C(=O)c1cc(F)ccc1Oc1nncnc1N1CCC2(C1)CN(C(CCCNCCOC(F)(F)F)C(C)C)C2)C(C)C (single isomer, unassigned) = Criterion met
• CCN(C)C[C@@H](O)C[C@H](N1CC2(CCN(c3ncnnc3Oc3ccc(F)cc3C(=O)N(CC)C(C)C)C2)C1)C(C)(C)C (single isomer, unassigned) = Criterion not met
• CC(C)N(C(=O)c1cc(F)ccc1Oc1nncnc1N1CCC2(C1)CN(C(CC(O)CN(C)C)C(C)(C)C)C2)C(C)C (single isomer, unassigned) [Compound 22] = Criterion not met
• CCN(C(=O)c1cc(F)ccc1Oc1nncnc1N1CCC2(C1)CN([C@H](CCN(C)CCS(N)(=O)=O)C(C)C)C2)C(C)C (single isomer, unassigned) = Criterion met

###

pIC50 by entry:
- Target Entity: Menin/MLL (Homo sapiens, UniProt O00255, T541A)
- Construct: Menin (a.a 1-610-6xhis tag)
- Protocol: Menin/MLL homogenous time-resolved fluorescence (HTRF) assay
- Test Settings: 30 min incubation of test compound with terbium chelate-labeled menin; FITC-MBM1 peptide
pIC50: −log10 of the molar value.
Outcome Measure: pIC50

* COCCN(C)CCC[C@H](C(C)C)N1CC2(CCN(c3ncnnc3Oc3ccc(F)cc3C(=O)N(CCNC(C)=O)C(C)C)C2)C1 | 9.48
* CCN(C(=O)c1cc(F)ccc1Oc1nncnc1N1CCC2(C1)CN(C(CCCN(C)CCOC(F)F)C(C)C)C2)C(C)C (single isomer, unassigned) | 9.74
* CC(C)N(C(=O)c1cc(F)ccc1Oc1nncnc1N1CCC2(C1)CN(C(CC(O)CN(C)C)C(C)(C)C)C2)C(C)C (single isomer, unassigned) [Compound 23] | 8.34
* CCN(CC(C)O)C(=O)c1cc(F)ccc1Oc1nncnc1N1CCC2(C1)CN(C(CCCN(C)CCOC)C(C)C)C2 (stereo not drawn) [Compound 14] | 8.18
* CCN(C[C@@H](C)O)C(=O)c1cc(F)ccc1Oc1nncnc1N1CCC2(C1)CN([C@H](CCCN(C)CCOC)C(C)C)C2 (single isomer, unassigned) | 7.45
* CCN(C(=O)c1cc(F)ccc1Oc1nncnc1N1CCC2(C1)CN(C(CCCNCCOC(F)F)C(C)C)C2)C(C)C (single isomer, unassigned) | 9.92
